protocol: A CellTox Green Cytotoxicity Assay to monitor cytotoxicity in HEK293 cells - 8 hour (AID 1224884); note: nearly all actives have a fitted effect of over 35% in size
condition.notes: CellTox Green fluorescence; series mostly up to 76.8 µM
Records with an inconclusive call do not appear. The source made the active and inactive calls. Calls come from the whole dose curve; as a rule, active = well fitted activation curve with a large enough effect in the repeat runs; inconclusive = weak or mixed curves; inactive = flat fitted curve, though single readings scatter.
observable: outcome

Some solved entries appear below for comparison.
[[record]]
line_notation = "CCc1nc(N)nc(N)c1-c1ccc(Cl)cc1"
reported_result = "inactive"

[[record]]
line_notation = "CCN(CC)C(=O)c1cccc(C)c1"
reported_result = "inactive"

[[record]]
line_notation = "CNNCc1ccc(C(=O)NC(C)C)cc1"
reported_result = "inactive"

[[record]]
line_notation = "Nc1ccc(S(N)(=O)=O)cc1"
reported_result = "inactive"

[[record]]
line_notation = "O=CC(=O)c1ccccc1"
reported_result = "inactive"


Entry CCN(Cc1c(F)cccc1Cl)c1c([N+](=O)[O-])cc(C(F)(F)F)cc1[N+](=O)[O-] needs its outcome filled in; supply it.
inactive

Entry Nc1c(N=Nc2ccc(-c3ccc(N=Nc4cc(S(=O)(=O)O)c5ccccc5c4N)cc3)cc2)cc(S(=O)(=O)O)c2ccccc12 needs its outcome filled in; supply it.
inactive

---

target: Progesterone receptor (Homo sapiens)
protocol: qHTS assay to identify small molecule agonists of the progesterone receptor (PR) signaling pathway (AID 1346784); note: nearly all actives have a fitted effect of over 30% in size
condition.notes: PR-UAS-bla HEK293T, beta-lactamase FRET ratio, 16 h; series mostly up to 92.4 µM
Records with an inconclusive call do not appear. Active and inactive are the calls of the source. The call rests on the fitted dose curve.
observable: outcome

[[record]]
compound = "CCOc1ccc(NC(C)=O)cc1"
reported_result = "inactive"

[[record]]
compound = "CN(C)CCOC(C)(c1ccccc1)c1ccccn1 (configuration not stated)"
reported_result = "inactive"

[[record]]
compound = "COc1ccc(OC(F)(F)F)cc1CN[C@H]1CCCN[C@H]1c1ccccc1"
reported_result = "inactive"

[[record]]
compound = "NC(=O)c1cccnc1"
reported_result = "inactive"

[[record]]
compound = "CCCCC(CC)C(=O)O (configuration not stated)"
reported_result = "inactive"


Give outcome for this entry on Progesterone receptor (Homo sapiens): CN(C)CCOC(c1ccccc1)c1ccccc1
inactive

Give outcome for this entry on Progesterone receptor (Homo sapiens): C[C@](N)(Cc1ccc(O)c(O)c1)C(=O)O
inactive

Give outcome for this entry on Progesterone receptor (Homo sapiens): CN[C@H]1CC[C@@H](c2ccc(Cl)c(Cl)c2)c2ccccc21
inactive

Give outcome for this entry on Progesterone receptor (Homo sapiens): Cc1ncc([N+](=O)[O-])n1CCO
inactive

Give outcome for this entry on Progesterone receptor (Homo sapiens): CCCCC1(COC(=O)CCC(=O)O)C(=O)N(c2ccccc2)N(c2ccccc2)C1=O
inactive

Give outcome for this entry on Progesterone receptor (Homo sapiens): Nc1c(N=Nc2ccc(-c3ccc(N=Nc4cc(S(=O)(=O)O)c5ccccc5c4N)cc3)cc2)cc(S(=O)(=O)O)c2ccccc12
inactive

Give outcome for this entry on Progesterone receptor (Homo sapiens): O=CC(=O)c1ccccc1
inactive

---

protocol: qHTS assay to identify small molecule agonists of the estrogen related receptor signaling pathway with the pleiotropic PPARgamma coactivator (PGC) from Tox21 10K library (AID 1224842); note: nearly all actives have a fitted effect of over 15% in size
condition.notes: PGC/ERR reporter cell line, luciferase ONE-Glo, 18 h; series mostly up to 92.4 µM
Description: National Center for Advancing Translational Sciences [NCATS] NIH Chemical Genomics Center [NCGC] U.S. Environmental Protection Agency [EPA] National Institutes of Environmental Health Sciences [NIEHS] National Toxicology Program [NTP] […] Assay Protocol Summary: The PGC/ERR cells were dispensed at 2,000 cells/5 ul/well in 1536-well white plates using a Multidrop dispenser. […] After 30-minute incubation at room temperature, the luminescence intensity in the plates was measured using a ViewLux plate reader.
Inconclusive results are not listed. Calls of active or inactive are those of the source. The call rests on the fitted dose curve; in most records, active means well fitted activation curve with a large enough effect in the repeat runs; inconclusive means weak or mixed curves, or effect the other way; inactive means no such curve, though single readings can be large or run the other way.
observable: outcome

Some solved entries appear below for comparison.
[[record]]
compound = "Nc1c2c(nc3ccccc13)CCCC2"
observable = "outcome"
reported_result = "inactive"

[[record]]
compound = "CN(C)CCOC(C)(c1ccccc1)c1ccccn1 (stereo unspecified)"
observable = "outcome"
reported_result = "inactive"

[[record]]
compound = "Nc1c(N=Nc2ccc(-c3ccc(N=Nc4cc(S(=O)(=O)O)c5ccccc5c4N)cc3)cc2)cc(S(=O)(=O)O)c2ccccc12"
observable = "outcome"
reported_result = "inactive"

[[record]]
compound = "CS(=O)(=O)OCCCCOS(C)(=O)=O"
observable = "outcome"
reported_result = "inactive"

[[record]]
compound = "CCN(Cc1c(F)cccc1Cl)c1c([N+](=O)[O-])cc(C(F)(F)F)cc1[N+](=O)[O-]"
observable = "outcome"
reported_result = "inactive"


Entry CCCCCCc1ccc(O)cc1O needs its outcome filled in; supply it.
inactive

Entry CCOc1ccc(NC(C)=O)cc1 needs its outcome filled in; supply it.
inactive

Value source: PubChem BioAssay (Tox21)
